target: MET (human) (Homo sapiens); test: MET (human) AlphaScreen kinase assay, Km of ATP; assay type: biochemical; details: AlphaScreen, Km of ATP; read-out: Met biochemical IC50
Sequence (P08581 25-1390): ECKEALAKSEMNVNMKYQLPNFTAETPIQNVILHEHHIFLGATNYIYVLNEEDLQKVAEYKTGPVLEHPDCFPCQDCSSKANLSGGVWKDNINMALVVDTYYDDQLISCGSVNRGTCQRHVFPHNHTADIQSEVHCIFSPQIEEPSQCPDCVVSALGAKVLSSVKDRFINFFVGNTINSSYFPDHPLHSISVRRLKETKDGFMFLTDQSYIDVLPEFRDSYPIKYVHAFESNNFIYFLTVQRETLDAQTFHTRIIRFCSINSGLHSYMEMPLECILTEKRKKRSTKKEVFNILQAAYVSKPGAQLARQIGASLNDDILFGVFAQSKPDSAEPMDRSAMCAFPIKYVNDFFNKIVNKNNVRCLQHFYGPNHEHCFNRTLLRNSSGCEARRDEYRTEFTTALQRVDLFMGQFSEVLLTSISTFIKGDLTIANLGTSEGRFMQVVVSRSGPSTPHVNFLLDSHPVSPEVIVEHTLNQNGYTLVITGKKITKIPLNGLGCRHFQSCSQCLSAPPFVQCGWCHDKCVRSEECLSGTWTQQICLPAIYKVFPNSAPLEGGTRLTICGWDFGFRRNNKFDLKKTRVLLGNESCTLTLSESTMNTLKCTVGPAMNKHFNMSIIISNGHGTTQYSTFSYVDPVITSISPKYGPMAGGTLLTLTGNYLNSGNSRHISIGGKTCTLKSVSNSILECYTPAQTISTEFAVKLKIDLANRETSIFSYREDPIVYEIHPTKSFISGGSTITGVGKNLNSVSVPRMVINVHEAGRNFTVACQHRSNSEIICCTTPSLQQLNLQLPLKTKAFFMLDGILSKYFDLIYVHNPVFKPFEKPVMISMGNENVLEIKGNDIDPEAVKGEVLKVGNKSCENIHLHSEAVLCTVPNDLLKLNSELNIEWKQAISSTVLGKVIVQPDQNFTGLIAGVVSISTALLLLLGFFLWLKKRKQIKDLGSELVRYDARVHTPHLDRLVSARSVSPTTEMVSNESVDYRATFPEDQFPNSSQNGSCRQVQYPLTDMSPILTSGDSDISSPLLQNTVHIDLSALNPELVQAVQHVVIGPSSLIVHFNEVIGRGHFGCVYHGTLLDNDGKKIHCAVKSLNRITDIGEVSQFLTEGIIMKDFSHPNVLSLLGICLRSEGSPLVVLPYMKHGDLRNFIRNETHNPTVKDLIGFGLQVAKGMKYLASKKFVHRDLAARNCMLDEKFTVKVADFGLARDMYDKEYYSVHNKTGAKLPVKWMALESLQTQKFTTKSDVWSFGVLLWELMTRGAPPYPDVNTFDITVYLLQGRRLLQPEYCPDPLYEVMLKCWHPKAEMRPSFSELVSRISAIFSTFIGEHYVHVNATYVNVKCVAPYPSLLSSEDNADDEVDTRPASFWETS
endpoint_name: IC50

1. C[C@@H](Oc1c(N)ncc2c(C3=CCN(C(=O)C4CCN(C)CC4)CC3)coc12)c1c(Cl)ccc(F)c1Cl    < 500 nM
2. CC(Oc1c(N)ncc2c(-c3cnn(C4CCNCC4)c3)coc12)c1cccc(OC(F)(F)F)c1 (stereo not drawn)    500 to 5000 nM
3. CC(Cc1cccc(Br)c1)Oc1c(N)ncc2c(-c3cnn(C4CCNCC4)c3)coc12 (stereo not drawn)    < 500 nM
4. C[C@@H](Oc1c(N)ncc2c(-c3ccc(C(=O)N4CCC(O)C4)cc3)coc12)c1c(Cl)ccc(F)c1Cl (stereo partly drawn)    500 to 5000 nM
5. CC(Cc1ccccc1Cl)Oc1c(N)ncc2c(-c3cnn(C4CCNCC4)c3)coc12 (stereo not drawn)    < 500 nM
6. CC(Oc1c(N)ncc2c(-c3cnn(C4CCNCC4)c3)coc12)c1ccc(C#N)cc1 (stereo not drawn)    < 500 nM
7. C[C@@H](Oc1c(N)ncc2c(C3=CCN(C(=O)N4CCCCC4)CC3)coc12)c1c(Cl)ccc(F)c1Cl    500 to 5000 nM
8. C[C@@H](Oc1c(N)ncc2c(-c3ccc(C(=O)N4CCN(CC(=O)N(C)C)CC4)cc3)coc12)c1c(Cl)ccc(F)c1Cl    500 to 5000 nM
9. C[C@@H](Oc1c(N)ncc2c(C3=CCN(C(=O)c4ncc[nH]4)CC3)coc12)c1c(Cl)ccc(F)c1Cl    500 to 5000 nM
10. C[C@@H](Oc1c(N)ncc2c(-c3csc(CN4CCC4)c3)coc12)c1c(Cl)ccc(F)c1Cl    < 500 nM
11. Nc1ncc2ccoc2c1OCc1ccc(NC(=O)c2cccn(-c3ccc(F)cc3)c2=O)cc1    500 to 5000 nM
12. C[C@@H](Oc1c(N)ncc2c(-c3ccc(N4CCNCC4)nc3)coc12)c1c(Cl)ccc(F)c1Cl    < 500 nM
13. CC(=O)Nc1ccc(-c2coc3c(O[C@H](C)c4c(Cl)ccc(F)c4Cl)c(N)ncc23)cc1    500 to 5000 nM
14. CC(Cc1c(Cl)cccc1C(F)(F)F)Oc1c(N)ncc2c(-c3cnn(C4CCNCC4)c3)coc12 (stereo not drawn)    < 500 nM
15. Cn1c(Cc2ccccc2)ncc(-c2ccc(COc3c(N)ncc4c(-c5cnn(C6CCNCC6)c5)coc34)cc2)c1=O    < 500 nM
16. C[C@@H]1CN[C@@H](C)CN1C(=O)c1ccc(-c2coc3c(O[C@H](C)c4c(Cl)ccc(F)c4Cl)c(N)ncc23)cc1    500 to 5000 nM
17. C[C@@H](Oc1c(N)ncc2c(-c3csc(CN(C)C)c3)coc12)c1c(Cl)ccc(F)c1Cl    < 500 nM
18. CC(Oc1c(N)ncc2c(-c3cnn(C4CCNCC4)c3)coc12)c1c(Cl)cccc1Br (stereo not drawn)    < 500 nM
19. Nc1ncc2c(-c3cnn(C4CCNCC4)c3)coc2c1OC1CCCc2c(F)cccc21 (stereo not drawn)    < 500 nM
20. Cc1oc2c(O[C@H](C)c3c(Cl)ccc(F)c3Cl)c(N)ncc2c1-c1cnn(C2CCNCC2)c1    < 500 nM
21. C[C@@H](Oc1c(N)ncc2c(-c3cccc(C(=O)NCCN4CCCC4)c3)coc12)c1c(Cl)ccc(F)c1Cl    < 500 nM
22. C[C@@H](Oc1c(N)ncc2c(C3=CCN(C(=O)[C@@H](N)Cc4ccccc4)CC3)coc12)c1c(Cl)ccc(F)c1Cl    < 500 nM
23. C[C@@H](Oc1c(N)ncc2c(-c3ccnc(N4CCN(C)CC4)c3)coc12)c1c(Cl)ccc(F)c1Cl    < 500 nM
24. CC(Cc1ccc(F)cc1)Oc1c(N)ncc2c(-c3cnn(C4CCNCC4)c3)coc12 (stereo not drawn)    < 500 nM

---

pIC50 reference
molecular target: MET (human) (Homo sapiens); assay: MET (human) AlphaScreen kinase assay, Km of ATP; format: biochemical; details: AlphaScreen, Km of ATP; read-out: Met biochemical IC50
pIC50: −log10 of the molar value.
endpoint_name: pIC50

1) C[C@H](Oc1c(N)ncc2c(-c3cnn(C4CCNCC4)c3)coc12)c1ccncc1 [Example 396]    > 6.30
2) C[C@@H](Oc1c(N)ncc2c(C3=CCN(C(=O)C(C)(C)O)CC3)coc12)c1c(Cl)ccc(F)c1Cl [Example 228]    5.30 to 6.30
3) C[C@@H](Oc1c(N)ncc2c(C3=CCN(Cc4ccccc4)CC3)coc12)c1c(Cl)ccc(F)c1Cl [Example 39]    > 6.30
4) C[C@@H](Oc1c(N)ncc2c(-c3ccc[nH]3)coc12)c1c(Cl)ccc(F)c1Cl [Example 133]    5.30 to 6.30
5) CC(=O)Nc1ccc(-c2coc3c(O[C@H](C)c4c(Cl)ccc(F)c4Cl)c(N)ncc23)cn1 [Example 120]    5.30 to 6.30
6) CC(Oc1c(N)ncc2c(-c3cnn(C4CCNCC4)c3)coc12)c1c(Cl)ccc2ccccc12 (stereo not drawn) [Example 369]    5.30 to 6.30
7) C[C@@H](Oc1c(N)ncc2c(-c3csc(CN4CCC(O)C4)c3)coc12)c1c(Cl)ccc(F)c1Cl (stereo partly drawn) [Example 307]    > 6.30
8) CC(Oc1c(N)ncc2c(C3=CCN(C(N)=O)CC3)coc12)c1c(Br)ccc(F)c1Cl (stereo not drawn) [Example 457]    > 6.30
9) C[C@@H](Oc1c(N)ncc2c(-c3ccc(C(N)=O)cc3)coc12)c1c(Cl)ccc(F)c1Cl [Example 63]    5.30 to 6.30
10) C[C@@H](Oc1c(N)ncc2c(C3=CCN(S(=O)(=O)C4CC4)CC3)coc12)c1c(Cl)ccc(F)c1Cl [Example 48]    > 6.30
11) CCN1CC=C(c2coc3c(O[C@H](C)c4c(Cl)ccc(F)c4Cl)c(N)ncc23)CC1 [Example 40]    > 6.30
12) CC(Oc1c(N)ncc2c(-c3cnn(C4CCNCC4)c3)coc12)c1c(Cl)c(F)cc(OC2CNC2)c1Cl (stereo not drawn) [Example 159]    > 6.30
13) CNc1ncc2c(C3=CCN(C)CC3)coc2c1O[C@H](C)c1c(Cl)ccc(F)c1Cl [Example 36]    > 6.30
14) C[C@@H](Oc1c(N)ncc2c(-c3ccc(C(=O)NCCCO)cc3)coc12)c1c(Cl)ccc(F)c1Cl [Example 288]    5.30 to 6.30
15) CC(Oc1c(N)ncc2c(-c3cnn(C4CCNCC4)c3)coc12)c1ccc(Cl)cc1F (stereo not drawn) [Example 378]    > 6.30
16) CC(Oc1c(N)ncc2c(-c3cnn(C4CCNCC4)c3)coc12)c1c(Cl)cccc1C(F)(F)F (stereo not drawn) [Example 365]    > 6.30
17) C[C@@H](Oc1c(N)ncc2c(-c3ccc(C#N)nc3)coc12)c1c(Cl)ccc(F)c1Cl [Example 125]    5.30 to 6.30
18) C[C@@H](N)C(=O)N1CC=C(c2coc3c(O[C@H](C)c4c(Cl)ccc(F)c4Cl)c(N)ncc23)CC1 [Example 252]    > 6.30

---

molecular target: UniProtKB Q04912; assay: RON (human) AlphaScreen kinase assay, Km of ATP; format: biochemical; settings: AlphaScreen, Km of ATP; read-out: RON biochemical IC50
pIC50: −log10 of the molar value.
endpoint_name: pIC50

1) CC(=O)N1CCN(c2ccc(-c3coc4c(O[C@H](C)c5c(Cl)ccc(F)c5Cl)c(N)ncc34)cn2)CC1    5.30 to 6.30
2) C[C@@H](Oc1c(N)ncc2c(-c3ccc(C(=O)Nc4nccs4)cc3)coc12)c1c(Cl)ccc(F)c1Cl    5.30 to 6.30
3) C[C@@H](Oc1c(N)ncc2ccoc12)c1nnc2ccc(-c3cnn(C)c3)nn12    < 4.70
4) CCS(=O)(=O)N1CC=C(c2coc3c(O[C@H](C)c4c(Cl)ccc(F)c4Cl)c(N)ncc23)CC1    5.30 to 6.30
5) C[C@@H](Oc1c(N)ncc2c(-c3ccc(C(=O)NCCN4CCOCC4)cc3)coc12)c1c(Cl)ccc(F)c1Cl    5.30 to 6.30
6) CC(C)CN1CC=C(c2coc3c(O[C@H](C)c4c(Cl)ccc(F)c4Cl)c(N)ncc23)CC1    > 6.30
7) C[C@@H](Oc1c(N)ncc2c(C3=CCN(CC(N)=O)CC3)coc12)c1c(Cl)ccc(F)c1Cl    5.30 to 6.30

---

molecular target: RON (human) (Homo sapiens, UniProt Q04912); experiment: RON (human) AlphaScreen kinase assay, Km of ATP; assay type: biochemical; conditions: AlphaScreen, Km of ATP; read-out: RON biochemical IC50
Sequence (Q04912 25-1400): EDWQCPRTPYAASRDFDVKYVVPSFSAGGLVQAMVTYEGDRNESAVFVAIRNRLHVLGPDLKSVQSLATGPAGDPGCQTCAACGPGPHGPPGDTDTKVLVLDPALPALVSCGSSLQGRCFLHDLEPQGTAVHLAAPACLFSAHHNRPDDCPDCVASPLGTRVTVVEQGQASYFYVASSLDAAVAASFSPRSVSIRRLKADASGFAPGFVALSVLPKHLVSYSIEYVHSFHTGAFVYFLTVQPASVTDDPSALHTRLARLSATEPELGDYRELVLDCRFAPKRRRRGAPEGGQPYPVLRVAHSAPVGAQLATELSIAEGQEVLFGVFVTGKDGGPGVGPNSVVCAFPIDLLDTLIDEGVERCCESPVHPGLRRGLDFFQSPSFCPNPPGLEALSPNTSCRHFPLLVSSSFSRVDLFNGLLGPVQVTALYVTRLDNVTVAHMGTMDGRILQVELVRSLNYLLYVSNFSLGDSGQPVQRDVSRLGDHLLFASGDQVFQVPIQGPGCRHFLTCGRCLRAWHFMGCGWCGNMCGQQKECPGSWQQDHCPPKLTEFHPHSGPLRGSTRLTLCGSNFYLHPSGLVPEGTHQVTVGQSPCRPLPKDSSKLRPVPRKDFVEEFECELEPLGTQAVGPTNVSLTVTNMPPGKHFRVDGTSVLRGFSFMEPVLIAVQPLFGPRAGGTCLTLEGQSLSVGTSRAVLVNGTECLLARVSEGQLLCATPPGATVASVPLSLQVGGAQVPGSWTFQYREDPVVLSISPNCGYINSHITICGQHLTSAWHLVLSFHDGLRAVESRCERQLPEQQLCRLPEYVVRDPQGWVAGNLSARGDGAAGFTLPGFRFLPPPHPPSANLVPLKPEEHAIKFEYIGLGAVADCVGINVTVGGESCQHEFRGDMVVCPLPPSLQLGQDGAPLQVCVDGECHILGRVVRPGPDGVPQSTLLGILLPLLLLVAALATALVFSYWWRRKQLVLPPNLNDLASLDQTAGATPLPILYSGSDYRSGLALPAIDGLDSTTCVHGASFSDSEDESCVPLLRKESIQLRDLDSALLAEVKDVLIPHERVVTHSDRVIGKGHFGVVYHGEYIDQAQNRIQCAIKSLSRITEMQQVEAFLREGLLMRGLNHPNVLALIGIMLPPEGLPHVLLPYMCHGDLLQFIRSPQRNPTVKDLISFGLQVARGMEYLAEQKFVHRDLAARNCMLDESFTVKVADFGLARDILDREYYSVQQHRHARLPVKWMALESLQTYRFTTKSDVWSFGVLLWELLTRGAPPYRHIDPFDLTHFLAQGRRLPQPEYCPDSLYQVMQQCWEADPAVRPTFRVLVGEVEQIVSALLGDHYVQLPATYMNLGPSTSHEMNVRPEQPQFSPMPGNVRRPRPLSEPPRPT
IC50 reference
endpoint_name: IC50

1) C[C@@H](Oc1c(N)ncc2c(C3=CCN(C4CNC4)CC3)coc12)c1c(Cl)ccc(F)c1Cl    < 500 nM
2) C[C@@H](Oc1c(N)ncc2c(-c3cccc(S(C)(=O)=O)c3)coc12)c1c(Cl)ccc(F)c1Cl    500 to 5000 nM
3) CC(Oc1c(N)ncc2c(C3=CCN(C(N)=O)CC3)coc12)c1c(Br)ccc(F)c1Cl (stereo not drawn)    500 to 5000 nM
4) C[C@@H](Oc1c(N)ncc2c(-c3ccnc(N4CCN(C)CC4)c3)coc12)c1c(Cl)ccc(F)c1Cl    < 500 nM
5) C[C@@H](Oc1c(N)ncc2c(C3=CCN(C(=O)[C@H]4CCCNC4)CC3)coc12)c1c(Cl)ccc(F)c1Cl    < 500 nM
6) C[C@@H](Oc1c(N)ncc2c(-c3ccc(CN(C)C)cc3)coc12)c1c(Cl)ccc(F)c1Cl    500 to 5000 nM
7) C[C@@H](Oc1c(N)ncc2c(-c3cc(C(=O)N4CCN(C)CC4)cs3)coc12)c1c(Cl)ccc(F)c1Cl    5000 to 20000 nM
8) CC(C)NC(=O)N1CC=C(c2coc3c(O[C@H](C)c4c(Cl)ccc(F)c4Cl)c(N)ncc23)CC1    500 to 5000 nM
9) C[C@@H](Oc1c(N)ncc2c(-c3csc(C(=O)N4CCC(O)CC4)c3)coc12)c1c(Cl)ccc(F)c1Cl    500 to 5000 nM
10) CC(Oc1c(N)ncc2c(-c3cnn(C4CCNCC4)c3)coc12)c1nc2ccccc2[nH]1 (stereo not drawn)    500 to 5000 nM
11) C[C@@H](Oc1c(N)ncc2c(C3=CCN(C(=O)C4CCN(C)CC4)CC3)coc12)c1c(Cl)ccc(F)c1Cl    < 500 nM
12) CCNC(=O)c1coc2c(O[C@H](C)c3c(Cl)ccc(F)c3Cl)c(N)ncc12    5000 to 20000 nM
13) C[C@@H](Oc1c(N)ncc2c(-c3ccn4ccnc4c3)coc12)c1c(Cl)ccc(F)c1Cl    500 to 5000 nM
14) C[C@@H](Oc1c(N)ncc2c(-c3nccs3)coc12)c1c(Cl)ccc(F)c1Cl    500 to 5000 nM
15) C[C@@H](Oc1c(N)ncc2c(-c3csc(C(=O)N(C)C)c3)coc12)c1c(Cl)ccc(F)c1Cl    500 to 5000 nM
